test-system: chimeric RARα receptor (Homo sapiens, UniProt P10276)
Sequence (P10276 183-417 limits assumed, change not shown): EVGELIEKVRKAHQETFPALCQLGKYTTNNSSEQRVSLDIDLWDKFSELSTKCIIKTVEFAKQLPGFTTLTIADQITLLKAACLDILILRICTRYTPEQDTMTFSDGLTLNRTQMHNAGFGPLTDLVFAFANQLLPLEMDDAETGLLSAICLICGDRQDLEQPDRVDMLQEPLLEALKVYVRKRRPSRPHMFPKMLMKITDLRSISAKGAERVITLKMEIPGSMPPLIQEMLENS
measurement-protocol: Cationic Liposome Mediated Transfection Assay (ERE-CAT reporter in HeLa cells), RARα
endpoint: EC50

Prompt: What does the data say about its EC50? Entry: C/C(=C\c1ccc(C(=O)O)o1)c1cc2c(cc1C)C(C)(C)CCC2(C)C
Completion: > 10 µM

---

# log10(EC50) per record follows
test-system: chimeric RXRα receptor (Homo sapiens)
Sequence (P19793 227-458 limits assumed): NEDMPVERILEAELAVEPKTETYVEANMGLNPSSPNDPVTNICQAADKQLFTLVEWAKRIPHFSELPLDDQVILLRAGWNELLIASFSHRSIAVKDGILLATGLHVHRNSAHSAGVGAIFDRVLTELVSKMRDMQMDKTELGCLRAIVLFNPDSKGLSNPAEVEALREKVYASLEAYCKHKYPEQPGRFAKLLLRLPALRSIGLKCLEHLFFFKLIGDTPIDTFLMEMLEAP
measurement-protocol: Cationic Liposome Mediated Transfection Assay (ERE-CAT reporter in HeLa cells), RXRα
experimental-conditions: concentration giving 50% of maximum CAT activity of reference AGN 191440
Could you please treat all values as log10 of EC50 in nM?

Use these answered entries as a reference point.
| compound | recorded-number |
| --- | --- |
| C/C(=C\c1ccc(C(=O)O)o1)c1cc2c(cc1C)C(C)(C)CCC2(C)C [Compound 4] | 2.71 |
| C/C(=C\C=C\C1C[C@H]1C(=O)O)c1cc2c(cc1C)C(C)(C)CCC2(C)C (stereo partly drawn) [Compound 5] | 2.14 |
| C/C(=C/C=C/c1occc1C(=O)O)c1cc2c(cc1C)C(C)(C)CCC2(C)C [Compound 3] | 3.12 |
| C/C(=C\c1cc(C(=O)O)cs1)c1cc2c(cc1C)C(C)(C)CCC2(C)C [Compound 1] | 1.83 |

Turning to the following compound.
Prompt: Find log10(EC50) (chimeric RXRα receptor (Homo sapiens)) for the entry C/C(=C\C=C\c1occc1C(=O)O)c1cc2c(cc1C)C(C)(C)CCC2(C)C [Compound 2]
Completion: 3.03

---

test-system: chimeric RARγ receptor (Homo sapiens, UniProt P13631)
Sequence (P13631 185-419 limits assumed, change not shown): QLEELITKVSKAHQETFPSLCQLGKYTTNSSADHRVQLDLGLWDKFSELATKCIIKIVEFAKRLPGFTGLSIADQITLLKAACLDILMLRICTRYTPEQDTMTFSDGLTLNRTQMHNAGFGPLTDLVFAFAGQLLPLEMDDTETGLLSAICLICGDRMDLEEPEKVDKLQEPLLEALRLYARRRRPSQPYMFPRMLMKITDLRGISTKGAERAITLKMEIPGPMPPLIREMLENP
measurement-protocol: Cationic Liposome Mediated Transfection Assay (ERE-CAT reporter in HeLa cells), RARγ
endpoint: EC50 (nM)
Answer in nM, number only, no unit symbol.

Prompt: What does the data say about its EC50? Entry: C/C(=C\c1cc(C(=O)O)cs1)c1cc2c(cc1C)C(C)(C)CCC2(C)C
Completion: 1070
